method: log P determination by HPLC on reversed-phase columns (C 18), analogous to OECD Guideline 117
Type: physicochemical
protocol_conditions: method [b]
recorded_endpoint: logP[b]

The following compounds have reported results that may help.
                                   compound   val
0  Cc1cc(F)c(N2C(=O)CN(C(=O)Nc3cccc(F)c3)C2=O)cc1SCC(F)(F)F  3.94
1  O=C(Nc1cccc(Cl)c1)N1CC(=O)N(c2cc(SCC(F)(F)F)c(Cl)cc2Cl)C1=O  4.56
2  O=C(NCC(F)(F)F)N1CC(=O)N(c2cc([S+]([O-])CC(F)(F)F)c(Cl)cc2Cl)C1=O (racemic)  2.91

a. O=C(NC1CC1)N1CC(=O)N(c2cc([S+]([O-])CC(F)(F)F)c(Cl)cc2Cl)C1=O (racemic)
b. Cc1cc(F)c(N2C(=O)CN(C(=O)N3CCN(C)CC3)C2=O)cc1SCC(F)(F)F
Query :: a or b : whose logP[b] is greater? Please reply using the label of the selected record.
Result :: a
(a: 2.65, b: 1.51)

A. Cc1cc(F)c(N2C(=O)CN(C(=O)Nc3cccc(CC(F)(F)F)c3)C2=O)cc1[S+]([O-])CC(F)(F)F (stereo not shown)
B. Cc1cc(F)c(N2C(=O)CN(C(=O)Nc3cccnc3)C2=O)cc1[S+]([O-])CC(F)(F)F (stereo not shown)
Query :: Name the one with the greater logP[b] value, either A or B as given. Refer to your chosen entry by its label in the reply.
Result :: A

---

method: log P determination by HPLC on reversed-phase columns (C 18), analogous to OECD Guideline 117
Assay type: physicochemical
protocol_conditions: reversed-phase HPLC column (C 18), pH 7.8, method [b]; read-out: logP[b]
recorded_endpoint: chromatographic logP

                                   compound   val
0  Cc1cc(F)c(N2C(=O)CN(C(=O)N3CCOCC3)C2=O)cc1SCC(F)(F)F [Ex. No. 122]  2.62
1  CCNC(=O)N1C(=O)N(c2cc([S+]([O-])CC(F)(F)F)c(C)cc2F)C(=O)C1C (centres unmarked) [Ex. No. 27]  2.39
2  Cc1cc(F)c(N2C(=O)CN(C(=O)NC3CC3)C2=S)cc1SCC(F)(F)F [Ex. No. 2]  3.56
3  Cc1cc(F)c(N2C(=O)CN(C(=O)NC3CC3)C2=S)cc1[S+]([O-])CC(F)(F)F (centres unmarked) [Ex. No. 4]  2.65
4  Cc1cc(F)c(N2C(=O)CN(C(=O)NCC(C)C)C2=O)cc1[S+]([O-])CC(F)(F)F (centres unmarked) [Ex. No. 15]  2.66
5  Cc1cc(F)c(N2C(=O)CN(C(=O)NCC(C)C)C2=O)cc1SCC(F)(F)F [Ex. No. 12]  3.58
6  Cc1cc(F)c(N2C(=O)CN(C(=O)NCC(F)(F)F)C2=O)cc1SCC(F)(F)F [Ex. No. 30]  3.21
7  Cc1cc(F)c(N2C(=O)CN(C(=O)NC3CC3)C2=O)cc1SCC(F)(F)F [Ex. No. 1]  2.98

---

method: log P determination by HPLC on reversed-phase columns (C 18), analogous to OECD Guideline 117
Format: physicochemical
protocol_conditions: method [a]
recorded_endpoint: logP[a]

// solved cases for logP[a] follow
In [3]: df
Out[3]:
                                   molecule  recorded_endpoint   val
0  Cc1cc(F)c(N2C(=O)CN(C(=O)Nc3ccccc3)C2=O)cc1SCC(F)(F)F            logP[a]  3.82
1  O=C(Nc1ccc(F)cc1)N1CC(=O)N(c2cc(SCC(F)(F)F)c(Cl)cc2Cl)C1=O            logP[a]  4.09
2  O=C(NC1CC1)N1CC(=O)N(c2cc(SCC(F)(F)F)c(Cl)cc2Cl)C1=O            logP[a]   3.3
3  Cc1cc(F)c(N2C(=O)N(C(=O)NCC(F)(F)F)C(C)(C)C2=O)cc1SCC(F)(F)F            logP[a]  4.02
4  Cc1cc(F)c(N2C(=O)CN(C(=O)N(C)CC(C)C)C2=O)cc1[S+]([O-])CC(F)(F)F (stereo not shown)            logP[a]   2.6

A. O=C(Nc1cccc(Cl)c1)N1CC(=O)N(c2cc([S+]([O-])CC(F)(F)F)c(Cl)cc2Cl)C1=O (racemic)
B. Cc1cc(C)c([S+]([O-])CC(F)(F)F)cc1N1C(=O)CN(C(=O)NCC(F)(F)F)C1=O (stereo not shown)
C. Cc1cc(F)c(N2C(=O)CN(C(=O)N(C)C)C2=O)cc1[S+]([O-])CC(F)(F)F (stereo not shown)
Query :: rank_up(items): orders items by reported logP[a] in ascending numerical order. When ranking, write the labels in the order the request describes.
Result :: C, B, A
(C: 1.75, B: 2.54, A: 3.81)

I. Cc1cc(F)c(N2C(=O)N(C(=O)NCC(C)C)C(C)(C)C2=O)cc1SCC(F)(F)F
II. Cc1cc(F)c(N2C(=O)CN(C(=O)NC(C)C)C2=S)cc1[S+]([O-])CC(F)(F)F (stereo not shown)
Query :: // pick larger logP[a] from pair: I vs II In your reply, give the label of the chosen option.
Result :: I
(I: 4.51, II: 3.01)

I. O=C(Nc1cccc(Cl)c1)N1CC(=O)N(c2cc(SCC(F)(F)F)c(Cl)cc2Cl)C1=O
II. Cc1cc(F)c(N2C(=O)C(C)N(C(=O)NC(C)C)C2=O)cc1[S+]([O-])CC(F)(F)F (stereo not shown)
Query :: Parameter check: reported logP[a] is higher for which label, I or II ? Give the chosen item's label as your response.
Result :: I
(I: 4.49, II: 2.77)

A. Cc1cc(F)c(N2C(=O)N(C(=O)NCc3ccccc3)C(C)(C)C2=O)cc1[S+]([O-])CC(F)(F)F (racemic)
B. CCNC(=O)N1CC(=O)N(c2cc([S+]([O-])CC(F)(F)F)c(C)cc2Cl)C1=O (stereo not shown)
Query :: Select one. Lower logP[a]: A or B // caller expects the label of the chosen entry
Result :: B

---

method: log P determination by HPLC on reversed-phase columns (C 18), analogous to OECD Guideline 117
Assay type: physicochemical
protocol_conditions: method [b]
recorded_endpoint: logP[b]

I. Cc1cc(C)c([S+]([O-])CC(F)(F)F)cc1N1C(=O)CN(C(=O)NCc2ccccc2)C1=O (racemic)
II. O=C(Nc1cccc(C(F)(F)F)c1)N1CC(=O)N(c2cc([S+]([O-])CC(F)(F)F)c(Cl)cc2Cl)C1=O (racemic)
Query :: I'd appreciate it if you could identify which of I and II has the greater logP[b]. Your choice should be expressed through its label.
Result :: II

1. Cc1cc(F)c(N2C(=O)C(C)N(C(=O)NC3CC3)C2=O)cc1[S+]([O-])CC(F)(F)F (stereo not drawn)
2. Cc1cc(C)c([S+]([O-])CC(F)(F)F)cc1N1C(=O)CN(C(=O)Nc2cccc(CC(F)(F)F)c2)C1=O (racemic)
Query :: Compare 1 and 2 by numeric logP[b] and name the larger one. Bench note: the answer is the label of the chosen record.
Result :: 2

1. Cc1cc(F)c(N2C(=O)CN(C(=O)NCC(C)C)C2=S)cc1[S+]([O-])CC(F)(F)F (stereo not drawn)
2. CCNC(=O)N1CC(=O)N(c2cc([S+]([O-])CC(F)(F)F)c(C)cc2F)C1=O (stereo not drawn)
Query :: Pick one, 1 or 2 : lowest reported logP[b]. Choose, then provide that item's label.
Result :: 2
(2: 2.05, 1: 3.24)

I. CCNC(=O)N1CC(=O)N(c2cc(SCC(F)(F)F)c(C)cc2Cl)C1=O
II. Cc1cc(F)c(N2C(=O)CN(C(=O)NCC3CCCO3)C2=O)cc1[S+]([O-])CC(F)(F)F (mixture of isomers)
Query :: So which one has the bigger logP[b] here, I or II ? Your answer should be the label attached to the chosen record.
Result :: I
(I: 3.13, II: 2.13)

1. Cc1cc(F)c(N2C(=O)CN(C(=O)NC(C)C)C2=O)cc1SCC(F)(F)F
2. CCNC(=O)N1CC(=O)N(c2cc([S+]([O-])CC(F)(F)F)c(C)cc2Cl)C1=O (stereo not drawn)
Query :: Higher logP[b]: 1 or 2 ? Write the label of whichever entry you select.
Result :: 1
(1: 3.29, 2: 2.24)

---

method: log P determination by HPLC on reversed-phase columns (C 18), analogous to OECD Guideline 117
Type: physicochemical
protocol_conditions: method [b]
recorded_endpoint: logP[b]

These recorded examples may help you get a feel for the data.
>>> print(df.to_string())
                                   molecule   val
0  Cc1cc(F)c(N2C(=O)CN(C(=O)Nc3cccc(Cl)c3)C2=O)cc1[S+]([O-])CC(F)(F)F (stereo not shown) [compound 48]  3.25
1  Cc1cc(C)c(N2C(=O)CN(C(=O)Nc3cccc(CC(F)(F)F)c3)C2=O)cc1SCC(F)(F)F [compound 55]  4.35
2  Cc1cc(F)c(N2C(=O)CN(C(=O)N3CCS(=O)(=O)CC3)C2=O)cc1SCC(F)(F)F [compound 128]  2.44
3  Cc1cc(F)c(N2C(=O)C(C)N(C(=O)NC(C)C)C2=O)cc1[S+]([O-])CC(F)(F)F (stereo not shown) [compound 29]  2.73
4  Cc1cc(C)c([S+]([O-])CC(F)(F)F)cc1N1C(=O)CN(C(=O)NC(C)C)C1=O (stereo not shown) [compound 23]  2.45

1. CCC(C)NC(=O)N1CC(=O)N(c2cc([S+]([O-])CC(F)(F)F)c(C)cc2F)C1=O (stereo not shown) [compound 47]
2. Cc1cc(Cl)c(N2C(=O)CN(C(=O)Nc3ccc(F)cc3)C2=O)cc1SCC(F)(F)F [compound 94]
Query :: Could you tell me which of these two has the smaller logP[b] figure? First: 1 Second: 2 Please reply using the label of the selected record.
Result :: 1
